experiment-notes: Stepwise acidification of CDA sodium/lithium salt (pKa)
Type: physicochemical
parameter: pKa

Exam item: Item under review: CCCCCCC/C=C\C(=O)O [CDA, cis-2-decenoic acid] . Reported pKa?
Marked response: 6.5 to 7.5
